ASSAY_SYSTEM: human ROR1 expressed on cells (MDA-MB-231, Jeko-1, PA-1, HCC1187) (human, UniProt Q01973 30-937)
Sequence (Q01973 30-937 limits assumed): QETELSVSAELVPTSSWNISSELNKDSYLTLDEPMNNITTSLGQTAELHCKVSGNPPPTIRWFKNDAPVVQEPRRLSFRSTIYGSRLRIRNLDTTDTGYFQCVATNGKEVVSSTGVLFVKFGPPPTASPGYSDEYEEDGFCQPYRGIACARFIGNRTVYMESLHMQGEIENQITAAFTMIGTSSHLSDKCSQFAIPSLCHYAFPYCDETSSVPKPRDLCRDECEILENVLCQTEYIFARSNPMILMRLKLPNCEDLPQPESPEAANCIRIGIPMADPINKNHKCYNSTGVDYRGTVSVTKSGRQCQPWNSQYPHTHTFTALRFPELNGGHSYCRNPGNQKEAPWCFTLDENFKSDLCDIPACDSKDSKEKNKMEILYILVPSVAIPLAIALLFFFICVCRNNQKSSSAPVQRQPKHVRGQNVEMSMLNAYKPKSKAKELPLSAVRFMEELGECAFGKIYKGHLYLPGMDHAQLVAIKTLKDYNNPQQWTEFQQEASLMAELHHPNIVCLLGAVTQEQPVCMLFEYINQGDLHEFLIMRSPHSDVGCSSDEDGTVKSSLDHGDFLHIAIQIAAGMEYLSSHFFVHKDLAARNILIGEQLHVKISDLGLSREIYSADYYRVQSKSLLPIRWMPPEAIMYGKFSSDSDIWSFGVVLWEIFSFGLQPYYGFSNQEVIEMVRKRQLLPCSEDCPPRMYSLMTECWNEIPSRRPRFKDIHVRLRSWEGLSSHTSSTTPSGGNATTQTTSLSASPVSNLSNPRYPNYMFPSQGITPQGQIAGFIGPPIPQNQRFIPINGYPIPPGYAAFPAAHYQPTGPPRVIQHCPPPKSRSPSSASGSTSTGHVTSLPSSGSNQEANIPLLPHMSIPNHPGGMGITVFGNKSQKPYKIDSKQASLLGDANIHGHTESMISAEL
ASSAY_SUMMARY: cell-based or functional assay
Listing of entries alongside the reported inhibitory IC50 against the proliferation of HCC1187 cells (CellTiterGlo2).
Please state the figure in nM; there is no need to write the unit.

BINDER: ADC-2 (AM3-ZH3 conjugated to LD-14) (antibody, human IgG1, kappa, V domains shown, linker-drug LD-14 (eribulin) on cysteine sulfhydryls of reduced disulfides; average DAR between 3.7 and 4.3) VH: EVQLVESGGGLVQPGGSLRLSCAASGFTFSSYPMSWVRQAPGKGLEWVSSISTGASAYFPDSVKGRFTISRDNAKNSLYLQMNSLRAEDTAVYYCARITTSTWYMDVWGQGTTVTVSS VL: DIQMTQSPSAMSASVGDRVTITCKASQDIYSYLSWFQQKPGKVPKTLIYRANRLVRGVPSRFSGSGSGQEYTLTISSLQPEDMATYYCLQYDEFPYTFGQGTKLEIKR
UNITS: nM
VALUE_OBSERVED: 0.09

Request: Give inhibitory IC50 against the proliferation of HCC1187 cells (CellTiterGlo2) for the following binder: ADC-5 (AM3-ZH3 conjugated to LD-1) (antibody, human IgG1, kappa, V domains shown, linker-drug LD-1 (MMAE) on cysteine sulfhydryls of reduced disulfides; average DAR between 3.7 and 4.3) VH: EVQLVESGGGLVQPGGSLRLSCAASGFTFSSYPMSWVRQAPGKGLEWVSSISTGASAYFPDSVKGRFTISRDNAKNSLYLQMNSLRAEDTAVYYCARITTSTWYMDVWGQGTTVTVSS VL: DIQMTQSPSAMSASVGDRVTITCKASQDIYSYLSWFQQKPGKVPKTLIYRANRLVRGVPSRFSGSGSGQEYTLTISSLQPEDMATYYCLQYDEFPYTFGQGTKLEIKR
Result: 6.3

Request: Give inhibitory IC50 against the proliferation of HCC1187 cells (CellTiterGlo2) for the following binder: ADC-7 (UC961 conjugated to LD-1) (antibody, human IgG1, kappa, V domains shown, linker-drug LD-1 (MMAE) on cysteine sulfhydryls of reduced disulfides; drug loading 3.7-4.3 per antibody) VH: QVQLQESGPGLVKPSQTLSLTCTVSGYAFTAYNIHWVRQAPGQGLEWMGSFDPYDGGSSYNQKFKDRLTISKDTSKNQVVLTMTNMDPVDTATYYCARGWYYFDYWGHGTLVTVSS VL: DIVMTQTPLSLPVTPGEPASISCRASKSISKYLAWYQQKPGQAPRLLIYSGSTLQSGIPPRFSGSGYGTDFTLTINNIESEDAAYYFCQQHDESPYTFGEGTKVEIKR
Result: 15.4

Request: Give inhibitory IC50 against the proliferation of HCC1187 cells (CellTiterGlo2) for the following binder: ADC-6 (UC961 conjugated to LD-14) (antibody, human IgG1, kappa, V domains shown, linker-drug LD-14 (eribulin) on cysteine sulfhydryls of reduced disulfides; drug loading 3.7-4.3 per antibody) VH: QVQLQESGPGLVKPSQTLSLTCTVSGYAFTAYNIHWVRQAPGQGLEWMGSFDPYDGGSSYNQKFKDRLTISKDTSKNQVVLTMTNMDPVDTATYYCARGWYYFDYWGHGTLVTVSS VL: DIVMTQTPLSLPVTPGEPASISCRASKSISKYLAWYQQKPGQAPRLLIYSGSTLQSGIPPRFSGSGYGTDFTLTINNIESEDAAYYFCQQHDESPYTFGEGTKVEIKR
Result: 0.24

These data points were gathered from patent EP4696329A1.
